# Assay Name: Brain distribution after single intraperitoneal dose in FVB wild-type, Bcrp1-/-, Mdr1a/b-/- and Mdr1a/b-/- Bcrp1-/- mice
# Format: in vivo, mouse (FVB)
# Condition Summary: FVB, mouse, plasma, intraperitoneal, 10 mg/kg, 10 mg/kg i.p.; 6 hrs; Bcrp1a/b-/-; read-out: Cplasma
Readout Type: concentration at 6 h (ng/mL)
# unit: ng/mL | format: bare number

Kindly note the recorded concentration at 6 h for "Cc1ccc(C(=O)N(CCCN)[C@@H](c2nc3cc(Cl)ccc3c(=O)n2Cc2ccccc2)C(C)C)cc1" , which is 1060

* * *

# Assay Name: Brain distribution after single intraperitoneal dose in FVB wild-type, Bcrp1-/-, Mdr1a/b-/- and Mdr1a/b-/- Bcrp1-/- mice
# Type: in vivo, mouse (FVB)
# Condition Summary: FVB, mouse, brain/plasma, ip, 10 mg/kg, 10 mg/kg i.p.; 2 hrs; Mdr1a/b-/- Bcrp1a/b-/-; read-out: Kp brain (Cbrain/Cplasma)
Readout Type: Kp at 2 h
Reply briefly: the number, and no unit.

# molecule "Cc1ccc(C(=O)N(CCCN)[C@@H](c2nc3cc(Cl)ccc3c(=O)n2Cc2ccccc2)C(C)C)cc1" ; its Kp at 2 h = 3.07

* * *

# Assay Name: in vivo
# Condition Summary: FVB, mouse, brain/plasma, iv, 5 mg/kg
Readout Type: Kp uu
// print number alone

"Cc1ccc(C(=O)N(CCCN)[C@@H](c2nc3cc(Cl)ccc3c(=O)n2Cc2ccccc2)C(C)C)cc1" yielded Kp uu of 1

* * *

# Assay Name: Brain distribution after single intraperitoneal dose in FVB wild-type, Bcrp1-/-, Mdr1a/b-/- and Mdr1a/b-/- Bcrp1-/- mice
# Format: in vivo, mouse (FVB)
# Condition Summary: FVB, mouse, brain, intraperitoneal, 10 mg/kg, 10 mg/kg i.p.; 6 hrs; Mdr1a/b-/- Bcrp1a/b-/-; read-out: Cbrain
Readout Type: concentration at 6 h (ng/mL)
Numeric answer only, unit ng/mL assumed.

The compound listed as Cc1ccc(C(=O)N(CCCN)[C@@H](c2nc3cc(Cl)ccc3c(=O)n2Cc2ccccc2)C(C)C)cc1 [Ispinesib] shows concentration at 6 h equal to 5590

* * *

# Assay Name: Brain distribution after single intraperitoneal dose in FVB wild-type, Bcrp1-/-, Mdr1a/b-/- and Mdr1a/b-/- Bcrp1-/- mice
# Format: in vivo, mouse (FVB)
# Condition Summary: FVB, mouse, brain/plasma, ip, 10 mg/kg, 10 mg/kg i.p.; 6 hrs; Mdr1a/b-/- Bcrp1a/b-/-; read-out: Kp brain (Cbrain/Cplasma)
# Description: At 2 and 6 hours following administration of ispinesib, whole blood and brain samples were harvested, and blood samples were centrifuged for plasma separation. Additional details on the conduct of in vivo pharmacokinetic studies are described in the supplementary methods. The drug concentrations in all samples were measured by a specific and sensitive LC-MS/MS assay for ispinesib. Kp=CbrainCplasma (Equation 4) DA= Kp, knockoutKp, wildtype (Equation 5)
Readout Type: Kp at 6 h
Enter a number only.

// Kp at 6 h value for Cc1ccc(C(=O)N(CCCN)[C@@H](c2nc3cc(Cl)ccc3c(=O)n2Cc2ccccc2)C(C)C)cc1 [Ispinesib] : 5.2

* * *

# Assay Name: Brain distribution after single intraperitoneal dose in FVB wild-type, Bcrp1-/-, Mdr1a/b-/- and Mdr1a/b-/- Bcrp1-/- mice
# Assay type: in vivo, mouse (FVB)
# Condition Summary: FVB, mouse, brain/plasma, ip, 10 mg/kg, 10 mg/kg i.p.; 2 hrs; Bcrp1a/b-/-; read-out: Kp brain (Cbrain/Cplasma)
Readout Type: Kp at 2 h
# print the numeric value only

The compound "Cc1ccc(C(=O)N(CCCN)[C@@H](c2nc3cc(Cl)ccc3c(=O)n2Cc2ccccc2)C(C)C)cc1" showed Kp at 2 h equal to 0.08

Numbers sourced from paper PMC7162859.
